Experiment: Partition between n-octanol and phosphate buffered saline
Assay type: physicochemical
Conditions: pH 7.4; PBS pH 7.40 / n-octanol, 27° C., 12 hours; read-out: Conc. n-Octanol / Conc. PBS (partition coefficient) (converted)
QUANTITY: logD at 12 h
Just the number, please.

// returns reported logD at 12 h for input C[C@H]1OC(c2ccccc2O)=N[C@@H]1C(=O)N(CCCCNC(=O)c1cccc(O)c1O)CCCNC(=O)c1cccc(O)c1O (relative stereo) 1.51

// returns reported logD at 12 h for input O=C(O)c1cccc(O)c1O [DHBA, 2,3-dihydroxybenzoic acid] -1.15

// returns reported logD at 12 h for input O=C(NCCCCNCCCNC(=O)c1cccc(O)c1O)c1cccc(O)c1O -0.0132

Recorded values, source patent US5496841A.
